Consider the following pIC50 data for BRD4 (Homo sapiens (Human), UniProt O60885), collected from several reports.
Conceptually, pIC50 converts a concentration in mol/L into minus its log10.

Below, each entry is followed by its recorded pIC50 result.
COc1ncccc1-c1nc2c([nH]1)[C@@H](c1ccc(Cl)cc1)N(c1cc(C)c3nnc(C(F)F)n3c1)C2=O	7.89
Cn1cc(N2C(=O)c3nn(C4CC4)cc3C2c2ccc(Cl)cc2)cc(Cl)c1=O (centres unmarked)	6.77
CC(C)n1cc2c(n1)C(=O)N(c1cc(Cl)c(=O)n(C)c1)C2c1ccc(Cl)cc1 (centres unmarked)	7.00
Cc1cc(N2C(=O)c3c(C4CC4)cn(C4COC4)c3C2c2ccc(Cl)cc2)cn2c(C)nnc12 (centres unmarked)	7.92
CCn1nc2c(c1C)C(c1ccc(F)cc1F)N(c1cc(C)c3nnc(C)n3c1)C2=O (centres unmarked)	7.34
Cc1cc(N2C(=O)c3nc(-c4nccs4)n(C(C)C)c3[C@H]2c2ccc(Cl)cc2)cn(C)c1=O	7.37

According to the records, this compound Cc1cc(N2C(=O)c3c(C4CNC4)cn(C)c3C2c2ccc(Cl)cc2)nc2c1nnn2C (centres unmarked) displays pIC50 of 7.92

====

A compilation of published log10(IC50) results with BRD4 (Homo sapiens (Human)).
Values below are the log10 of the recorded IC50, with µM as the unit.

COc1ccc(-c2nc3c(n2C(C)C)C(c2ccc(Cl)cc2)N(c2cc(C)c4nnn(C)c4n2)C3=O)cn1 (stereo not shown)	-1.96
Cc1cc(N2C(=O)c3cc(-c4cccc(=O)n4C)n(C4CC4)c3C2c2ccc(Cl)cc2)cn(C)c1=O (stereo not shown)	-0.92
CCn1c(-c2ccc(OC)nc2)nc2c1C(=O)N(c1cc(C)c(=O)n(C)c1)C2c1ccc(Cl)cc1 (stereo not shown)	-1.11
COc1ccc(-c2nc3c([nH]2)C(c2ccc(Cl)cc2)N(c2cc(C)c4nnc(C(F)F)n4c2)C3=O)cn1 (stereo not shown)	-1.63
Cc1nn(C(C)C)c2c1C(c1ccc(Cl)cc1F)N(c1cc(C)c3nnc(C)n3c1)C2=O (stereo not shown)	-1.23

So, Cc1cc(N2C(=O)c3nc(C)n(C(C)C)c3[C@H]2c2ccc(Cl)cc2)cn2c(C)nnc12 ? Its log10(IC50) was -1.52

Lookup result for Cc1cc(N2C(=O)c3c(c(CO)nn3C3CC3)C2c2ccc(Cl)cc2)cn(C)c1=O (stereo not shown) ; measured log10(IC50): -1.10

Entry Cc1n[nH]c2c1[C@@H](c1ccc(Cl)cc1)N(c1cc(C)c3nnc(C)n3c1)C2=O , log10(IC50) reported as -1.82

// recorded log10(IC50) for CCn1nc(C)c2c1C(=O)N(c1cc(C)c3nnc(C)n3c1)[C@@H]2c1ccc(Cl)cc1F : -1.41

Short answer for Cc1ccc(C2c3c(ccn3C)C(=O)N2c2cc(C)c(=O)n(C)c2)cc1 (stereo not shown) : log10(IC50) was -0.88

log10(IC50) reading for Cc1cc(N2C(=O)c3nc(C4CCOCC4)n(C(C)C)c3[C@H]2c2ccc(Cl)cc2)cn2c(C)nnc12 : -1.85

In plain terms, Cc1cc(N2C(=O)c3nc(C4=CCOCC4)n(C(C)C)c3C2c2ccc(Cl)cc2)nn2c(C(F)F)nnc12 (stereo not shown) has a documented log10(IC50) of -1.82

Measured log10(IC50) of Cc1nn(C2CC2)c2c1C(c1ccc(Cl)cc1)N(c1cc(C)c3nnn(C)c3n1)C2=O (stereo not shown) : -1.92

====

System: BRD4 (Homo sapiens (Human), UniProt O60885) | Read-out: IC50 | Origin: multiple publications
Reply numerically in nM, unit not repeated.

Example compounds with recorded IC50:
CCn1c(-c2ccc(OC)nc2)nc2c1C(=O)N(c1cc(C)c(=O)n(C)c1)[C@@H]2c1ccc(Cl)cc1	28.5
Cc1cc(N2C(=O)c3c(nc(C)n3C(C)C)C2c2ccc(Cl)cc2)cc2c1nnn2C (racemic)	15
Cc1cn(C)c2c1C(=O)N(c1cc(C)c3nnc(C(F)F)n3c1)C2c1ccc(Cl)cc1 (centres unmarked)	17
Cc1[nH]nc2c1C(c1ccc(Cl)cc1)N(c1cc(Cl)c(=O)n(C)c1)C2=O (centres unmarked)	360
Cc1c2c(nn1C)C(=O)N(c1cc(Cl)c(=O)n(C)c1)C2c1ccc(Cl)cc1 (centres unmarked)	190
Cc1cc(N2C(=O)c3nn(C4CC4)c(C)c3[C@H]2c2ccc(Cl)cc2)cn(C)c1=O	47

// IC50 (BRD4 (Homo sapiens (Human), UniProt O60885)) for COC(=O)N1CCC(c2nc3c(n2C(C)C)C(c2ccc(Cl)cc2)N(c2cc(C)c4nnc(C)n4c2)C3=O)CC1 (centres unmarked) = 54

Tested on BRD4 (Homo sapiens (Human), UniProt O60885), the item Cc1nn(C2CC2)c2c1C(c1ccc(OC(F)(F)F)cc1)N(c1cc(C)c(=O)n(C)c1)C2=O (centres unmarked) showed IC50 equal to 64

====

IC50 values for BRD4 (Homo sapiens (Human), UniProt O60885), compiled from several publications.
Mark True only for IC50 values smaller than 0.04 µM; exact matches and larger values are False.

Field: example entries. Status: answers known.
Cc1n[nH]c2c1C(c1ccc(F)cc1F)N(c1cc(C)c3nnc(C)n3c1)C2=O (stereo not shown)	False
Cc1noc(C)c1-c1cnc2c3cnc(C(C)(C)O)cc3n(C(c3ccccc3)C3CCOCC3)c2c1 (stereo not shown)	True
CC(=O)N1CC(n2cc(C3CC3)c3c2C(c2ccc(Cl)cc2)N(c2cc(C)c4nnn(C)c4n2)C3=O)C1 (stereo not shown)	True

INPUT: # strict comparison: is reported IC50 < 0.04 µM? input = Cc1cc(N2C(=O)c3c(C4CC4)cn(C4CN(C)C4)c3C2c2ccc(Cl)cc2)cn2c(C)nnc12 (stereo not shown)
OUTPUT: True

INPUT: Take the compound Cc1noc(C)c1-c1cnc2c3ccc(C(C)(C)O)nc3n(C(c3ncccc3F)C3CCOCC3)c2c1 (stereo not shown) and say whether its IC50 is less than 0.04 µM.
OUTPUT: True

INPUT: Dear colleague, could you confirm whether IC50 of Cc1nc(Nc2ccc(N3CCN(C)CC3)cc2)nc(Nc2cccc(S(=O)(=O)NC(C)C)c2)c1C falls below 0.04 µM? Thanks.
OUTPUT: False

INPUT: Lab log: compare recorded IC50 with 0.04 µM; is it strictly lower for Cc1cc(N2C(=O)c3nc(C4=CCOCC4)n(C(C)C)c3[C@H]2c2ccc(Cl)cc2)cn2c(C)nnc12 ?
OUTPUT: True

INPUT: Please state whether IC50 is below 0.04 µM for CCc1nn(C2CC2)c2c1C(c1ccc(Cl)cc1)N(c1cc(OC)c3nnc(C)n3c1)C2=O (stereo not shown)
OUTPUT: True

====

Listed below are compounds with pIC50 for BRD4 (Homo sapiens (Human)), each taken from published literature.
pIC50 here: minus log base 10 of the concentration, concentration in moles per litre.

Completed entries (count: 3):
Cc1ccc(C2c3c(ccn3C)C(=O)N2c2cc(Cl)c(=O)n(C)c2)cc1 (centres unmarked)	6.92
COc1ncc(-n2nc(C)c3c2C(=O)N(c2cc(Cl)c(=O)n(C)c2)C3c2ccc(Cl)cc2)c(OC)n1 (centres unmarked)	6.89
CNC(=O)n1nc(C)c2c1C(=O)N(c1cc(C)c3nnc(C)n3c1)C2c1ccc(Cl)cc1 (centres unmarked)	6.85

Form field, pIC50 with BRD4 (Homo sapiens (Human)), item CCn1nc(C)c2c1C(=O)N(c1cc(C)c3nnc(C)n3c1)C2c1ccc(Cl)cc1 (centres unmarked) : 7.49

// pIC50 (BRD4 (Homo sapiens (Human))) for Cc1c2c(nn1C1CC1)C(=O)N(c1cc(Cl)c(=O)n(C)c1)[C@H]2c1ccc(Cl)cc1 = 4.64

Item: Cc1cc(N2C(=O)c3nc(C4CC4)n(C4COC4)c3C2c2ccc(Cl)cc2)cc2c1nnn2C (centres unmarked) | System: BRD4 (Homo sapiens (Human)) | pIC50: 7.58

====

Before we begin, note that these IC50 values for BRD4 (Homo sapiens (Human)) originate from several publications.
Record the value in nM, omitting the unit from your answer.

Cc1cc(N2C(=O)c3c(c(CO)nn3C3CC3)C2c2ccc(Cl)cc2)cn2c(C)nnc12 (stereo not drawn)	36
Cc1nn(C2CC2)c2c1C(c1cccc(C(F)(F)F)c1)N(c1cc(C)c(=O)n(C)c1)C2=O (stereo not drawn)	780

Tested on BRD4 (Homo sapiens (Human)): Cc1cc(N2C(=O)c3c(C4CC4)cn(C4COC4)c3C2c2ccc(Cl)cc2)nc2c1nnn2C (stereo not drawn) . Observed IC50: 21

Field IC50 (BRD4 (Homo sapiens (Human))), entry Cc1c2c(nn1C)C(=O)N(c1cc(Cl)c(=O)n(C)c1)[C@H]2c1ccc(Cl)cc1 : 31000

Form: item COc1ncccc1-c1nc2c([nH]1)C(c1ccc(Cl)cc1)N(c1cc(C)c3nnc(C)n3c1)C2=O (stereo not drawn) ; test system BRD4 (Homo sapiens (Human)); IC50: 65

Entry COc1cc(N2C(=O)c3nc(C4CCOCC4)n(C(C)C)c3[C@H]2c2ccc(Cl)cc2)cc2c1nnn2C : IC50 on BRD4 (Homo sapiens (Human)) = 61

The reported BRD4 (Homo sapiens (Human)) IC50 of Cc1c2c(nn1C)C(=O)N(c1ccc(=O)n(C)n1)C2c1ccc(Cl)cc1 (stereo not drawn) is 660

Cc1cc(N2C(=O)c3nn(C4CN(C)C4)c(C)c3C2c2ccc(Cl)cc2)cn(C)c1=O (stereo not drawn) on BRD4 (Homo sapiens (Human)) gives IC50 = 190

Per the reported BRD4 (Homo sapiens (Human)) data, COc1ccc(-c2nc3c([nH]2)C(c2ccc(Cl)cc2)N(c2cc(C)c(=O)n(C)c2)C3=O)cn1 (stereo not drawn) has IC50 of 64

Item CCOC(=O)N1CC(n2nc(C)c3c2C(=O)N(c2cc(C)c(=O)n(C)c2)C3c2ccc(Cl)cc2)C1 (stereo not drawn) was tested on BRD4 (Homo sapiens (Human)); the reported IC50 is 87

IC50 value, target or system BRD4 (Homo sapiens (Human)), for Cc1cc(N2C(=O)c3nc(C4=CCOC4)n(C(C)C)c3[C@H]2c2ccc(Cl)cc2)cn2c(C)nnc12 : 27

Reading of IC50 for Cc1cc(N2C(=O)c3nc(-c4cccnc4F)n(C)c3C2c2ccc(Cl)cc2)cn(C)c1=O (stereo not drawn) with BRD4 (Homo sapiens (Human)): 170

// assay BRD4 (Homo sapiens (Human)), entry Cc1cc(N2C(=O)c3nn(C(C)C)c(C)c3C2c2ccc(F)cc2F)cn2c(C)nnc12 (stereo not drawn) , IC50 value = 34

The observed IC50 for Cc1cc(N2C(=O)c3c(C4CC4)c(C)n(C)c3C2c2ccc(Cl)cc2)cn2c(C)nnc12 (stereo not drawn) when tested with BRD4 (Homo sapiens (Human)) stands at 12
